Some compounds, each annotated with its measured pIC50.
# Tested on: DNA topoisomerase 1 (Bos taurus)
# Test summary: Inhibition of topoisomerase I activity was determined in vitro by using the cleavable complex assay(calf thymus)
Quick note: pIC50 values are minus log10 of concentrations in mol/L.

Examples with answers:
CC[C@@]1(O)C(=O)OCc2c1cc1n(c2=O)Cc2c-1nc1cc3c(cc1c2CCl)OCCO3 : 7.96
CC[C@@]1(O)C(=O)OCc2c1cc1n(c2=O)Cc2c-1nc1cc3c(cc1c2CCl)OCO3 : 7.82

Kindly consider the entry below.
Fill in pIC50 for record `CC[C@@]1(O)C(=O)OCc2c1cc1n(c2=O)Cc2c-1nc1cc3c(cc1c2CN1CCN(C)CC1)OCCO3`
6.38
